# System: 786-0
# assay_info: NCI tumour cell line growth inhibition, 48 h
Activity calls are given as the source filed them. Rule as the data show it: active = GI50 up to about 1.1 µM and inactive = higher.
Log the outcome using a class from t for active, f for inactive

Task: What did this assay record as the result for O=C(NC1CCC[C@H]1OC(=O)c1ccccc1)c1ccccc1 (some centres not stated) ?
Result: f

Task: Entry to check: CSc1nc(NC2OCC(OC(C)=O)C(OC(C)=O)C2OC(C)=O)c2c(OC(C)=O)c(C)c(=O)oc2n1 (configuration not stated)
Result: f

Task: Same for `NS(=O)(=O)c1ccc(NNC(=O)c2cccc3c(=O)c4ccccc4[nH]c23)cc1`
Result: f

Task: Input `O=c1[nH]c(=S)c2cc3c(=S)[nH]c(=O)n(CCO)c3nc2n1CCO`
Result: f

Task: Then `CC(=O)Nc1ccc(/N=N\c2c(O)c(S(=O)(=O)O)cc3cc(S(=O)(=O)O)ccc23)cc1` ?
Result: f

Task: Next entry: `CC1(C)O[C@@H]([C@H](O)CO)[C@H](O)[C@@H](C2SCCCS2)O1`
Result: f

Task: Then this compound: `COc1cc(O)c2c(c1)C(=O)C=C(Cl)C2=O`
Result: f

Task: Also COC(=O)CNC(=O)CCC(C)[C@H]1CCC2C3C(C[C@H](OC(C)=O)[C@@]21C)[C@@]1(C)CCC2(C[C@H]1C[C@H]3OC(C)=O)OOC1(CC[C@]3(C)C4C[C@H](OC(C)=O)[C@@]5(C)C(CC[C@@H]5C(C)CCC(=O)NCC(=O)OC)C4[C@H](OC(C)=O)C[C@@H]3C1)OO2 (some centres not stated) , if possible.
Result: t

Task: Can you check O=C1CC(C(O)C(O)C(O)CO)CC(=O)N1 (configuration not stated) next?
Result: f

Task: Query `CCN(CC)CCNC(=O)c1ccccc1Nc1c(Cl)cccc1Cl` next
Result: f

Task: Item: `CC(=O)O[C@H]1C(=O)[C@@]2(C)[C@H]([C@H](OC(=O)c3ccccc3)[C@]3(O)C[C@H](OC(=O)[C@H](O)[C@@H](NC(=O)CC(C)C)c4ccccc4)C(C)=C1C3(C)C)[C@]1(OC(C)=O)CO[C@@H]1C[C@@H]2O`
Result: t

Task: // query: c1c[nH]c(C23C4C5C6C4C2C6C53)n1 (configuration not stated)
Result: f

Task: Here is the next compound: `O=C(c1ccc(/N=C/c2ccccc2O)cc1)c1ccc(/N=C/c2ccccc2O)cc1`
Result: f

Task: Thanks! And CC1(C)OC2C(CO)OC(n3cnc(N)nc3=O)C2O1 (configuration not stated) ?
Result: f

Task: Same question for `Cc1nc2c(N)ncnc2o1` please.
Result: f

Task: Then `CC(/C=N/N(C)C1=NCCCN1)=N/N(C)C1=NCCCN1` ?
Result: f

Task: Note, next up: `CCC(=O)O[C@H]1CC[C@H]2[C@@H]3CCC4=C/C(=N/OC(=O)c5cccc6c(=O)c7ccccc7[nH]c56)CC[C@]4(C)[C@H]3CC[C@]12C`
Result: f

---

# Test system: SF-268
# assay_info: NCI tumour cell line growth inhibition, 48 h
Active and inactive are the calls of the source. No stated cut-off is given here; in the data, active = GI50 up to about 1.1 µM and inactive = higher.
A correct response names exactly one class from Yes = active, No = inactive

INSERT INTO measurements (molecule, label) VALUES
  ('COc1ccc2c(=O)c3cc([N+](=O)[O-])ccc3n(C)c2c1', 'No');

Proceed to the following item.
Task: How did this test come out for `C=Cc1cncc(C#N)c1CCc1c(C#N)cncc1C=C` ?
Result: No

---

# Tested on: DU-145
# assay_info: NCI tumour cell line growth inhibition, 48 h
Activity calls are given as the source filed them. Cut-off read from the data, not from the text of the source: active = GI50 up to about 1.1 µM and inactive = higher.
Valid outcomes are listed here; reply with one: TRUE for active, FALSE for inactive

INSERT INTO assay_data (molecule, label) VALUES
  ('O=C1OC(C2OC(=O)c3cc(O)c(O)c(O)c3-c3c(O)c(O)c4oc(=O)c5c(c(O)c(O)c6oc(=O)c3c4c65)-c3c(cc(O)c(O)c3O)C(=O)OCC2O)C2OC(=O)c3c(c(O)c(O)c(O)c3[C@H]2O)-c2c1cc(O)c(O)c2O (some centres not stated)', 'FALSE'),
  ('CC(=O)O[C@H]1C(=O)[C@@]2(C)[C@H]([C@H](OC(=O)c3ccccc3)[C@]3(O)C[C@H](OC(=O)[C@H](O)[C@@H](NC(=O)CC(C)C)c4ccccc4)C(C)=C1C3(C)C)[C@]1(OC(C)=O)CO[C@@H]1C[C@@H]2O', 'TRUE'),
  ('O=S(=O)(O)c1ccc2c(/N=N/c3ccc(/N=N/c4ccccc4)cc3)c(O)c(S(=O)(=O)O)cc2c1', 'FALSE');

Proceed to the following item.
Task: Please indicate how the test categorized `c1ccc(/N=C2\SC3=NCCN3\C2=N/c2ccccc2)cc1` .
Result: FALSE

---

# System: TK-10
# assay_info: NCI tumour cell line growth inhibition, 48 h
Activity calls are given as the source filed them. No stated cut-off is given here; in the data, active = GI50 up to about 1.1 µM and inactive = higher.
Choose the fitting class; nothing outside Yes = active, No = inactive is accepted.

Answered cases to consult:
INSERT INTO measurements (compound, label) VALUES
  ('COc1ccccc1/N=C1\SCCN1C(=S)Nc1ccc(S(=O)(=O)/N=C/N(C)C)cc1', 'No'),
  ('CC1(C)O[C@@H]([C@H](O)CO)[C@H](O)[C@@H](C2SCCCS2)O1', 'No'),
  ('CC1=NN(c2ccccc2)C(=O)C1/N=N/c1ccc([As](=O)(O)O)c(O)c1 (centres undefined)', 'No'),
  ('N#CC(C(=N/O)/C(=N/O)C(C#N)c1ccc(Cl)cc1)c1ccc(Cl)cc1 (centres undefined)', 'No'),
  ('CNC(=O)N1CCN(C(=O)NC)CCN(C(=O)NC)CC1', 'No'),
  ('CC(C)c1nc(Cl)nc(Cl)c1Cl', 'Yes'),
  ('COc1cc2c(cc1OC)-c1cc3ccccc3c(=O)n1CC2', 'No'),
  ('COc1ccc2oc(=N)c(C(=O)NCc3ccccc3)cc2c1', 'No');

Task: Lab log entry: COC(OC)C1OC(CO)C(n2cc(F)c(=O)[nH]c2=O)C1O (centres undefined) — outcome as called in the assay?
Result: No

---

Below: a set of entries, each annotated with reported GI50.
# System: SK-MEL-5
# assay_info: NCI tumour cell line growth inhibition, 48 h
The source made the active and inactive calls. No stated cut-off is given here; in the data, active = GI50 up to about 1.1 µM and inactive = higher.

Example compounds with recorded GI50:
INSERT INTO assay_data (compound, measurement_type, reported) VALUES
  ('O=C(c1cccs1)N(C(=O)N1CCC(c2ccccc2)CC1)c1ccccc1', 'GI50', '16.8 µM (inactive)'),
  ('COC(=O)C(Cc1c[nH]c2ccccc12)NC(=O)C(Cc1c[nH]c2ccccc12)NC(=O)OCc1ccccc1 (centres undefined)', 'GI50', '29.5 µM (inactive)');

Task: What reported GI50 corresponds to CC(NC(=O)C(Cc1ccc(OC(=O)c2ccccc2)cc1)NC(=O)OC(C)(C)C)C(=O)NCC(=O)NC(Cc1ccccc1)NC(=O)OCc1ccccc1 (centres undefined) on SK-MEL-5?
Result: 71.6 µM (inactive)

Task: Follow-up entry: `COc1ccccc1/N=C1\SCCN1C(=S)Nc1ccc(S(=O)(=O)/N=C/N(C)C)cc1`
Result: 15.9 µM (inactive)

---

# System: NCI-H23
# assay_info: NCI tumour cell line growth inhibition, 48 h
Activity calls are given as the source filed them. Rule as the data show it: active = GI50 up to about 1.1 µM and inactive = higher. Where a SMILES comes first, the peptide text is derived from it. The star is where a group is joined. Fmoc = O=C(OCC1c2ccccc2-c2ccccc21)*; OBn = c1ccc(CO*)cc1; tBu = CC(C)(C)*
Overview of reported GI50 across a group of compounds:

Study these solved cases before continuing.
INSERT INTO results (compound, measurement_type, reported) VALUES
  ('CC(OC(C)(C)C)C(NC(=O)OCC1c2ccccc2-c2ccccc21)C(=O)NC(Cc1ccccc1)C(=O)OCc1ccccc1 (configuration not stated) (Fmoc-Thr(tBu)-Phe-OBn; configuration not given here)', 'GI50', '> 100 µM (inactive)'),
  ('COc1ccc(-c2nc3ncccn3c2-c2ccc([S+](C)[O-])cc2)cc1 (configuration not stated)', 'GI50', '> 100 µM (inactive)'),
  ('C/C(=C1/N=C(c2cc([N+](=O)[O-])ccc2Cl)N(c2ccc(Br)cc2)C1=O)c1cc2ccccc2oc1=O', 'GI50', '38.3 µM (inactive)'),
  ('C[C@]12CC[C@H](O)CC1=CC[C@@H]1C2CC[C@]2(C)c3nn(-c4ccc(F)cc4)nc3CC12 (some centres not stated)', 'GI50', '63.4 µM (inactive)'),
  ('O=C1OC(C2OC(=O)c3cc(O)c(O)c(O)c3-c3c(O)c(O)c4oc(=O)c5c(c(O)c(O)c6oc(=O)c3c4c65)-c3c(cc(O)c(O)c3O)C(=O)OCC2O)C2OC(=O)c3c(c(O)c(O)c(O)c3[C@H]2O)-c2c1cc(O)c(O)c2O (some centres not stated)', 'GI50', '16.6 µM (inactive)');

// below: GI50 requested for another compound
Task: // returns reported GI50 for input `CN(C)CCNC(=O)c1cccc2ccc(-c3ccc(-c4ccccc4)cc3)nc12`
Result: 5.69 µM (inactive)
